measured.on: canine TRPM8 (Canis lupus familiaris)
Construct: expressed in transfected cells
Sequence (Q1A7N1 1-1104): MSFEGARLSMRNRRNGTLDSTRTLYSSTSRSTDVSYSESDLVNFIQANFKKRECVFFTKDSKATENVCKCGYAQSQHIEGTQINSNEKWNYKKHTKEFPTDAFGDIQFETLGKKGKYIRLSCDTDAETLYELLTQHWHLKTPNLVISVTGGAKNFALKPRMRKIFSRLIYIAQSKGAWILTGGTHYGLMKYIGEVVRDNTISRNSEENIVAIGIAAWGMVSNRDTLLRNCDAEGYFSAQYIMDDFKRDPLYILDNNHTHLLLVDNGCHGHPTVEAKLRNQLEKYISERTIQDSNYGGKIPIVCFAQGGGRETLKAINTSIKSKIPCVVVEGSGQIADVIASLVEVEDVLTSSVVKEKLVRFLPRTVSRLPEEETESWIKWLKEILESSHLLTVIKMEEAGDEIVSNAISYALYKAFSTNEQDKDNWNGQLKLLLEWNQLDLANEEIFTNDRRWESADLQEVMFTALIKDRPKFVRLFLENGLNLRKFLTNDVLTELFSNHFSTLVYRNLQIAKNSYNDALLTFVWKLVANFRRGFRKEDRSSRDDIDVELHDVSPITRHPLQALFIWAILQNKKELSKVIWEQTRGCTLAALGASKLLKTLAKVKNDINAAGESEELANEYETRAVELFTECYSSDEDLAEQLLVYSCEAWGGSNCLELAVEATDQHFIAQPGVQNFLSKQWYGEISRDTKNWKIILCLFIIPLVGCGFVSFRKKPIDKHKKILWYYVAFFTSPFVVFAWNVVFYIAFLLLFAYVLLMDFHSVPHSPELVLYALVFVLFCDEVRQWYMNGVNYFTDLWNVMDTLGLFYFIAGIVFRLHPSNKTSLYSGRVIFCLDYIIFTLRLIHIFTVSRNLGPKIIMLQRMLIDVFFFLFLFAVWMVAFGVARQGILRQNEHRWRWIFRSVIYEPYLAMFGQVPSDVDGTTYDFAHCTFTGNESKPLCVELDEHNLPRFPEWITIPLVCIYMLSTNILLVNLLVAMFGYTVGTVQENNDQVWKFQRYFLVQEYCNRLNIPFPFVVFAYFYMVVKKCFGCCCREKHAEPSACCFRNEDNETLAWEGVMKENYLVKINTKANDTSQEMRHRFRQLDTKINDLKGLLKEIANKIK
experiment.notes: In Vitro Canine TRPM8 Functional Assay (Ca2+ fluorescence, icilin activation)
Assay type: cell-based
assay.context: HEK293, 0.2 μM compound; canine TRPM8 HEK293; icilin
measured.metric: inhibition at 0.2 µM

// solved cases for inhibition at 0.2 µM follow
compound	measured.on	inhibition at 0.2 µM
CC(C)(O)c1ccccc1OC(C(=O)N1CCCC1c1ccccc1F)c1ccc(C(F)(F)F)cc1 (stereo not shown) [Cpd 199]	canine TRPM8 (Canis lupus familiaris)	62%
O=C(C(Oc1ccccc1F)c1ccc(C(F)(F)F)cc1)N1CCCC1c1ccccc1F (stereo not shown) [Cpd 263]	canine TRPM8 (Canis lupus familiaris)	84%
Cc1nc2ccc(C(Nc3ccccc3F)C(=O)N3CCCC3c3ccccc3F)cc2s1 (single isomer, unassigned) [Cpd 340]	canine TRPM8 (Canis lupus familiaris)	101%
O=C(O)c1ccc(C2CCCN2C(=O)C(Nc2ccccc2F)c2ccc(C(F)(F)F)cc2)cc1 (stereo not shown) [Cpd 222]	canine TRPM8 (Canis lupus familiaris)	93%
O=C(C(c1ccc(C(F)(F)F)cc1)N1CCc2ccccc21)N1CCC[C@H]1c1cccnc1 (mixture of isomers) [Cpd 275]	canine TRPM8 (Canis lupus familiaris)	94%

Below is a list of compounds. For each, state its recorded inhibition at 0.2 µM.
1. O=C(C(Nc1ccccc1F)c1ccc(-c2cncnc2)cc1)N1CCCC1c1ccccc1F (stereo not shown) [Cpd 288]
2. O=C(C(Cc1cccc(F)c1F)c1ccc(C(F)(F)F)cc1)N1CCCC1c1ccccc1F (stereo not shown) [Cpd 253]

Result block:
1: 91%; 2: 89%
